# Test system: Streptococcus pyogenes
# Assay: Antibacterial activity against Streptococcus pyogenes serotype M24 assessed as growth inhibition after 24 hrs by MTT assay
# Format: functional
# Stated conditions: serotype M24, 24 h
Please use Criterion met for MIC under 30 µg/mL and Criterion not met for everything else, ties included.

Lab note: MIC threshold 30 µg/mL. Does this compound come in strictly under it? CCCCCCCCSC[C@H]1O[C@H](O[C@H]2[C@H](O[C@@H]3O[C@H](CSCCCCCCCC)[C@@H](O[C@H]4O[C@@H](CN)[C@@H](O)[C@H](O)[C@H]4N)[C@H]3O)[C@@H](O)[C@H](N)C[C@@H]2N)[C@H](N)[C@@H](O)[C@@H]1O Criterion met

Confirm or reject: MIC of CCCCCCSC[C@H]1O[C@H](O[C@H]2[C@H](O[C@@H]3O[C@H](CSCCCCCC)[C@@H](O[C@H]4O[C@@H](CN)[C@@H](O)[C@H](O)[C@H]4N)[C@H]3O)[C@@H](O)[C@H](N)C[C@@H]2N)[C@H](N)[C@@H](O)[C@@H]1O lies strictly below 30 µg/mL Criterion met

MIC strictly < 30 µg/mL for this compound? CCCCCCCSC[C@H]1O[C@H](O[C@H]2[C@H](O[C@@H]3O[C@H](CSCCCCCCC)[C@@H](O[C@H]4O[C@@H](CN)[C@@H](O)[C@H](O)[C@H]4N)[C@H]3O)[C@@H](O)[C@H](N)C[C@@H]2N)[C@H](N)[C@@H](O)[C@@H]1O Criterion met

# check: MIC < 30 µg/mL for CCCCCCCCCCCCCCCCSC[C@H]1O[C@H](O[C@H]2[C@H](O[C@@H]3O[C@H](CO)[C@@H](O[C@H]4O[C@@H](CN)[C@@H](O)[C@H](O)[C@H]4N)[C@H]3O)[C@@H](O)[C@H](N)C[C@@H]2N)[C@H](N)[C@@H](O)[C@@H]1O Criterion not met

Strictly below 30 µg/mL: is that where MIC of NC[C@@H]1O[C@H](O[C@H]2[C@@H](O)[C@H](O[C@@H]3[C@@H](O)[C@H](N)C[C@H](N)[C@H]3O[C@H]3O[C@H](CO)[C@@H](O)[C@H](O)[C@H]3N)O[C@@H]2CO)[C@H](N)[C@@H](O)[C@@H]1O [PAROMOMYCIN] sits? Criterion not met

Entry source: ChEMBL document CHEMBL2390839
